The values you see were collected from Sander's compilation of Henry's law constants (doi:10.1016/j.atmosenv.2016.10.009).

# test-details: Henry solubility constant Hcp at 298.15 K (mol/(m3 Pa))
# stated-conditions: reference: Odabasi and Adali (2016)
endpoint: Henry solubility constant Hcp
Just the number, please, no unit attached.

Q: Look up Henry solubility constant Hcp: Clc1cc2c(Cl)cc(Cl)c(Cl)c2c(Cl)c1Cl [1,2,3,5,7,8-hexachloronaphthalene]
Ans: 0.43

Q: Look up Henry solubility constant Hcp: Clc1ccc2c(Cl)cccc2c1Cl [1,2,5-trichloronaphthalene]
Ans: 0.11

Q: Look up Henry solubility constant Hcp: Clc1cc(Cl)c2c(Cl)cccc2c1Cl [1,2,4,5-tetrachloronaphthalene]
Ans: 0.15

Q: Look up Henry solubility constant Hcp: Clc1c(Cl)c(Cl)c2c(Cl)c(Cl)c(Cl)c(Cl)c2c1Cl [octachloronaphthalene]
Ans: 1.2

Q: Look up Henry solubility constant Hcp: Clc1cc(Cl)c2c(Cl)c(Cl)ccc2c1Cl [1,2,4,5,6-pentachloronaphthalene]
Ans: 0.14

Q: Look up Henry solubility constant Hcp: Clc1cc(Cl)c2c(Cl)ccc(Cl)c2c1Cl [1,2,4,5,8-pentachloronaphthalene]
Ans: 0.26

Q: Look up Henry solubility constant Hcp: Clc1cc(Cl)c2cccc(Cl)c2c1 [1,3,5-trichloronaphthalene]
Ans: 0.071

Q: Look up Henry solubility constant Hcp: Clc1cc(Cl)c2c(Cl)cc(Cl)c(Cl)c2c1 [1,2,4,5,7-pentachloronaphthalene]
Ans: 0.089

Q: Look up Henry solubility constant Hcp: Clc1ccc(Cl)c2c(Cl)cccc12 [1,4,5-trichloronaphthalene]
Ans: 0.22

Q: Look up Henry solubility constant Hcp: Clc1cc2c(Cl)ccc(Cl)c2c(Cl)c1Cl [1,2,3,5,8-pentachloronaphthalene]
Ans: 0.17

Q: Look up Henry solubility constant Hcp: Clc1c(Cl)c(Cl)c2c(Cl)ccc(Cl)c2c1Cl [1,2,3,4,5,8-hexachloronaphthalene]
Ans: 0.93

* * *

# test-details: Henry solubility constant Hcp at 298.15 K (mol/(m3 Pa))
# stated-conditions: reference: Odabasi and Adali (2016)
Kindly return YES if reported Henry solubility constant Hcp is no lower than 0.2; return NO if it is lower.

Q: Could you tell me if the measured Henry solubility constant Hcp of Clc1cc2c(Cl)c(Cl)c(Cl)c(Cl)c2c(Cl)c1Cl [1,2,3,4,5,6,7-heptachloronaphthalene] reaches 0.2 or more?
Ans: YES

Q: Could you tell me if the measured Henry solubility constant Hcp of Clc1cc(Cl)c2c(Cl)c(Cl)cc(Cl)c2c1 [1,2,4,6,8-pentachloronaphthalene] reaches 0.2 or more?
Ans: NO

Q: Could you tell me if the measured Henry solubility constant Hcp of Clc1ccc2c(Cl)c(Cl)ccc2c1 [1,2,6-trichloronaphthalene] reaches 0.2 or more?
Ans: NO

Q: Could you tell me if the measured Henry solubility constant Hcp of Clc1ccc2c(Cl)c(Cl)c(Cl)c(Cl)c2c1 [1,2,3,4,6-pentachloronaphthalene] reaches 0.2 or more?
Ans: NO

Q: Could you tell me if the measured Henry solubility constant Hcp of Clc1cc(Cl)c2c(Cl)c(Cl)c(Cl)c(Cl)c2c1Cl [1,2,3,4,5,6,8-heptachloronaphthalene] reaches 0.2 or more?
Ans: YES

Q: Could you tell me if the measured Henry solubility constant Hcp of Clc1ccc(Cl)c2c(Cl)ccc(Cl)c12 [1,4,5,8-tetrachloronaphthalene] reaches 0.2 or more?
Ans: YES

Q: Could you tell me if the measured Henry solubility constant Hcp of Clc1ccc2c(Cl)c(Cl)c(Cl)c(Cl)c2c1Cl [1,2,3,4,5,6-hexachloronaphthalene] reaches 0.2 or more?
Ans: YES

Q: Could you tell me if the measured Henry solubility constant Hcp of Clc1ccc2c(Cl)cc(Cl)c(Cl)c2c1Cl [1,2,4,7,8-pentachloronaphthalene] reaches 0.2 or more?
Ans: NO
